// data source = ChEMBL document CHEMBL4616652

- Tested on: Vero
- assay comment: Cytotoxicity against African green monkey Vero cells incubated for 72 hrs by MTT assay
- Format: cell-based
- conditions: Chlorocebus sabaeus
pIC50: −log10 of the molar value.
# pIC50 per entry

structure | subject of test | pIC50
C[C@@]12O[C@@H]1C(O)=C1C(=O)c3c(ccc(-c4ccc5c(c4O)C(=O)C4=C(O)[C@H]6O[C@@]6(C)[C@H](OC(=O)CCC(=O)O)[C@]4(C)O5)c3O)O[C@@]1(C)[C@H]2OC(=O)CCC(=O)O | Vero | < 4.30

Next compound, please.
Quick note, pIC50 for COC(=O)CCC(=O)O[C@H]1[C@]2(C)O[C@@H]2C(O)=C2C(=O)c3c(ccc(-c4ccc5c(c4O)C(=O)C4=C(O)[C@H]6O[C@@]6(C)[C@H](OC(=O)CCC(=O)O)[C@]4(C)O5)c3O)O[C@]21C landed at < 4.30
